Some compounds, each annotated with its measured IC50.
target: beta-catenin/TCF4 engagement (Homo sapiens)
Construct: expressed in transfected cells; host or cells: HEK293
Sequence (P35222 whole entry): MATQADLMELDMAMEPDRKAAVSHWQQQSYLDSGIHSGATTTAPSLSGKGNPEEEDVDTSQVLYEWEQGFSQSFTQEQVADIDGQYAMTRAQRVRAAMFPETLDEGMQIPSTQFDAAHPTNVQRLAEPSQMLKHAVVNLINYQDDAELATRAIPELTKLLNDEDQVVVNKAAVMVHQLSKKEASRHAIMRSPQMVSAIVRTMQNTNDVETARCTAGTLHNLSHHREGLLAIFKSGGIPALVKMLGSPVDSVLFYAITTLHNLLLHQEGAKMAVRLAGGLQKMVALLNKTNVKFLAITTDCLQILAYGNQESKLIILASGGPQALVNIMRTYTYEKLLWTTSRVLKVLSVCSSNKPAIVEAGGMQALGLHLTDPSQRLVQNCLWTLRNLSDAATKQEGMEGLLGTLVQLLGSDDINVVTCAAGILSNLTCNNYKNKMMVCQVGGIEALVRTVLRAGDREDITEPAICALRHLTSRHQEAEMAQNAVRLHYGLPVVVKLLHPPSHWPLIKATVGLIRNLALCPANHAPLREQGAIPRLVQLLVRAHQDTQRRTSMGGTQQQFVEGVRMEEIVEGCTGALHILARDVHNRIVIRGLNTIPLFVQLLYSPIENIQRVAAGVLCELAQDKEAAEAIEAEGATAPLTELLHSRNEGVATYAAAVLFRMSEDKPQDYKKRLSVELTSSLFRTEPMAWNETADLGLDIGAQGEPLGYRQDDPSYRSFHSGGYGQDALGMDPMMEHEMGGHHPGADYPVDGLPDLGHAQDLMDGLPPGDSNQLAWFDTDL
measurementDescription: Nano-BRET target engagement assay (B-cat-Halo & TCF4-Luc in HEK293 cells)
Format: cell-based
conditionDescription: absolute IC50; read-out: NanoBRET Abs IC50
// note: answer is a bare numeric in µM

Param item: CCCC[C@@H]1NC(=O)[C@H](Cc2ccccc2)NC(=O)[C@H](C)NC(=O)C(C)(C)NC(=O)[C@H](Cc2cccc(C(=O)O)c2)NC(=O)[C@H](CC(=O)O)NC(=O)C2(CCCC=CCCCOC(=O)N3CC[C@@](C(=O)N[C@@H](Cc4ccsc4)C(=O)N[C@@H](Cc4csc5ccccc45)C(=O)N[C@@H](CCC(=O)NCC)C(N)=O)(C3)NC1=O)CCCC=CC[C@]1(CCCN1C(C)=O)C(=O)N[C@@H](CC(=O)O)C(=O)N[C@@H](CC(C)(C)C)C(=O)N2 (some centres unmarked) ; param system: beta-catenin/TCF4 engagement (Homo sapiens); output IC50: 10.4

Shift focus to the following entry.
# value of IC50, beta-catenin/TCF4 engagement (Homo sapiens), item CC(=O)N1CCC[C@]12CC=CCCCC1(CCCC=CCCCOC(=O)N3CC[C@@](C(=O)N[C@@H](Cc4ccccc4Cl)C(=O)N[C@@H](Cc4csc5ccccc45)C(=O)N[C@@H](CCC(N)=O)C(=O)NCCCCCCN)(C3)NC(=O)[C@H]([C@@H](C)O)NC(=O)[C@H](Cc3ccccc3)NC(=O)[C@H](C)NC(=O)[C@H](C)NC(=O)[C@H](CN(CC(=O)O)CC(F)(F)F)NC(=O)[C@H](CC(=O)O)NC1=O)NC(=O)[C@H](CC(C)(C)C)NC(=O)[C@H](CC(=O)O)NC2=O (some centres unmarked) = 10.3

Reference source: patent US20240116985A1
